The entries that follow carry IC50 values tested on UniProtKB P41229, drawn from several published reports.
Sequence (P41229 whole entry): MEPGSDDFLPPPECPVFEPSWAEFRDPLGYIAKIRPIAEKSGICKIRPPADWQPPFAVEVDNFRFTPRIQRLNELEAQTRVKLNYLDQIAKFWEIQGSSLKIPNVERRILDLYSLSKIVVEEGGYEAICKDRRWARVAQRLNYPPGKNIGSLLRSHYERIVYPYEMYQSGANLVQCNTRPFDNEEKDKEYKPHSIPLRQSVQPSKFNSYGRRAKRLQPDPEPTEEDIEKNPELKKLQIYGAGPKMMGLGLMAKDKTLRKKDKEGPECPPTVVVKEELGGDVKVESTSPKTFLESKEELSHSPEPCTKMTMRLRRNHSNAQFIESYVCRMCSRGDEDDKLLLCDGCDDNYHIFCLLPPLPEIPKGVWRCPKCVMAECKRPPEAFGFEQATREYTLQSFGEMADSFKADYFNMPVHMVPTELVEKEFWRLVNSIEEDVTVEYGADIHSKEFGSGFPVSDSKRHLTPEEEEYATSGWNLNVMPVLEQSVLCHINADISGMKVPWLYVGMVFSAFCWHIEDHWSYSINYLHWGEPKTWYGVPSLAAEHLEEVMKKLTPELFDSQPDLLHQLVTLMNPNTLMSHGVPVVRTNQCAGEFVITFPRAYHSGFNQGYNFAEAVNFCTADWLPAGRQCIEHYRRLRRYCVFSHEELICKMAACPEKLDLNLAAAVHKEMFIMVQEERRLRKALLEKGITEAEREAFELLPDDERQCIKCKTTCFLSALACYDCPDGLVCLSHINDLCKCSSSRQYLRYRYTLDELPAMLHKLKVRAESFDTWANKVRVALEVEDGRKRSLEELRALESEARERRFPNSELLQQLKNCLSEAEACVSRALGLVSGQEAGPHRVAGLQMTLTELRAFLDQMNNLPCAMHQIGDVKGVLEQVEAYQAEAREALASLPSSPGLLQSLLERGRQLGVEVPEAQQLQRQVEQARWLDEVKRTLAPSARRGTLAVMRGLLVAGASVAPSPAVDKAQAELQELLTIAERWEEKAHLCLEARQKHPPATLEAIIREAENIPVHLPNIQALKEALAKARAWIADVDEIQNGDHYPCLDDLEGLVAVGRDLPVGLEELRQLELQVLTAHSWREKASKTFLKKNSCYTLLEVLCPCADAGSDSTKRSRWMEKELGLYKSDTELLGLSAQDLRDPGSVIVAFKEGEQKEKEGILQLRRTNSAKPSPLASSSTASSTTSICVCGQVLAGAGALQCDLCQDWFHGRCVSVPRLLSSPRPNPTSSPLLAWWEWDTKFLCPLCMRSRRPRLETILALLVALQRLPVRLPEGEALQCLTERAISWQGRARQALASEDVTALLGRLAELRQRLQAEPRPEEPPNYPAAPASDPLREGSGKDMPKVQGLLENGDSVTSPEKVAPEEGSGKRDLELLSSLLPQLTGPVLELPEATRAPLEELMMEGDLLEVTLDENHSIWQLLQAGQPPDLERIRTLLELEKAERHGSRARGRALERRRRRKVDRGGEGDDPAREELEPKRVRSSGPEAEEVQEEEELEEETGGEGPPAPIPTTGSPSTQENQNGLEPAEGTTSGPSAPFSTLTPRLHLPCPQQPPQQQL
Express the result in nM but write the number alone.

Here is how some compounds turned out for IC50.
CCOC(=O)CCNc1cc(N2CCc3ccccc3CC2)nc(-c2ccccn2)n1; 15000
CCCCCCN(C)CCn1cc(-c2cc(C(=O)O)ccn2)nn1; 8.8
CCCCCN(C)CCCCC(=O)N(O)CCC(=O)O; 28900
COc1ccc(-n2cc(C(=O)NCC(C)(C)N3CCOCC3)c(-c3ccccc3)n2)cc1; 24.8
Cl.N[C@H]1C[C@@H]1c1ccc(NC(=O)CCCCCNC(=O)c2ccc(O)c3ncccc23)cc1 (relative stereo); 37000
O=C(O)CCNc1cc(N2CCc3ccccc3CC2)nc(-c2ccccn2)n1; 550

Now look at this one.
Record summary for CCN(CCN(C)C)C(=O)CNCc1cc(C(=O)O)ccn1 : reported IC50 = 9.92
